The following binders are shown together with reported SPOT intensity values.
# MEASURED_TARGET: T1, Cyk3, Q07533
# T1 sequence (Q07533 1-83, looked up): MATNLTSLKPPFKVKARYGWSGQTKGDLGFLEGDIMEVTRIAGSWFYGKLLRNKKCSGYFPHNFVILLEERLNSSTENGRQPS
# ASSAY_METHOD_TEXT: SPOT array
# TEST_SETTINGS: median of control spots 1451
Simply state the number, no unit and no words.

# input Requested read-out: SPOT intensity. Entry: RPKRRAPPPVPKKPS
# output 2

# input Requested read-out: SPOT intensity. Entry: QQEQNTPPLPPKPKS
# output 0
